assay: in vivo; design: species or system mice; settings: male, NODSCID 1L2RγKO, mouse, iv, total radioactivity, Tumor uptake
Please respond with reported tissue uptake at 1 h for every item in the list.
Numbers only, in %ID/g.

compound	assayValue
COc1ccc(CCCC(=O)NCC(=O)N[C@@H](CCCCNC(=O)CN2CCN(CC(=O)O)CCN(CC(=O)O)CCN(CC(=O)O)CC2)C(=O)NC[C@H]2CC[C@H](C(=O)N[C@@H](Cc3c4ccccc4cc4ccccc34)C(=O)NCCCC[C@H](NC(=O)N[C@@H](CCCC(=O)O)C(=O)O)C(=O)O)CC2)cc1 [177Lu-HTK03170, metal not drawn]	27.2
O=C(O)CCC[C@H](NC(=O)N[C@@H](CCCCNC(=O)[C@H](Cc1c2ccccc2cc2ccccc12)NC(=O)[C@H]1CC[C@H](CNC(=O)[C@H](CCCCNC(=O)CN2CCN(CC(=O)O)CCN(CC(=O)O)CCN(CC(=O)O)CC2)NC(=O)CNC(=O)CCCc2ccc(Cl)cc2)CC1)C(=O)O)C(=O)O [177Lu-HTK03153, metal not drawn]	14.2

Quick batch: tissue uptake at 1 h for everything below.
1. O=C(O)CCC[C@H](NC(=O)N[C@@H](CCCCNC(=O)[C@H](Cc1c2ccccc2cc2ccccc12)NC(=O)[C@H]1CC[C@H](CNC(=O)CN2CCN(CC(=O)O)CCN(CC(=O)O)CCN(CC(=O)O)CC2)CC1)C(=O)O)C(=O)O [177Lu-HTK03149, metal not drawn]
2. COc1ccc(CCCC(=O)NCC(=O)N[C@@H](CCCCNC(=O)CN2CCN(CC(=O)O)CCN(CC(=O)O)CCN(CC(=O)O)CC2)C(=O)NC[C@H]2CC[C@H](C(=O)N[C@@H](Cc3c4ccccc4cc4ccccc34)C(=O)NCCCC[C@H](NC(=O)N[C@@H](COCC(=O)O)C(=O)O)C(=O)O)CC2)cc1 [177Lu-HTK04028, metal not drawn]
3. COc1ccc(CCCC(=O)NCC(=O)N[C@@H](CCCCNC(=O)CN2CCN(CC(=O)O)CCN(CC(=O)O)CCN(CC(=O)O)CC2)C(=O)NC[C@H]2CC[C@H](C(=O)N[C@@H](Cc3c4ccccc4cc4ccccc34)C(=O)NCCCC[C@H](NC(=O)N[C@@H](CSCC(=O)O)C(=O)O)C(=O)O)CC2)cc1 [177Lu-HTK04048, metal not drawn]

14
19
15.6

====

experiment: in vivo; conditions: male, NODSCID 1L2RγKO, mouse, iv, total radioactivity, Tail uptake
Returns one of Satisfied or Not satisfied; Satisfied when tissue uptake at 1 h is >= 0.7 %ID/g.

compound	qualitativeLabel
O=C(O)COC[C@H](NC(=O)N[C@@H](CCCCNC(=O)[C@H](Cc1c2ccccc2cc2ccccc12)NC(=O)[C@H]1CC[C@H](CNC(=O)CN2CCN(CC(=O)O)CCN(CC(=O)O)CCN(CC(=O)O)CC2)CC1)C(=O)O)C(=O)O [68Ga-HTK03187, metal not drawn]	Not satisfied

Entry O=C(O)CC[C@H](NC(=O)N[C@@H](CCCCNC(=O)[C@H](Cc1c2ccccc2cc2ccccc12)NC(=O)[C@H]1CC[C@H](CNC(=O)CN2CCN(CC(=O)O)CCN(CC(=O)O)CCN(CC(=O)O)CC2)CC1)C(=O)O)C(=O)O [68Ga-HTK03041, metal not drawn] : is its tissue uptake at 1 h no less than 0.7 %ID/g?
Satisfied

Entry O=C(O)CCC[C@H](NC(=O)N[C@@H](CCCCNC(=O)[C@H](Cc1c2ccccc2cc2ccccc12)NC(=O)Cc1ccc(CNC(=O)CN2CCN(CC(=O)O)CCN(CC(=O)O)CCN(CC(=O)O)CC2)cc1)C(=O)O)C(=O)O [68Ga-HTK04036, metal not drawn] : is its tissue uptake at 1 h no less than 0.7 %ID/g?
Not satisfied

Entry O=C(O)CSC[C@H](NC(=O)N[C@@H](CCCCNC(=O)[C@H](Cc1c2ccccc2cc2ccccc12)NC(=O)[C@H]1CC[C@H](CNC(=O)CN2CCN(CC(=O)O)CCN(CC(=O)O)CCN(CC(=O)O)CC2)CC1)C(=O)O)C(=O)O [68Ga-HTK03177, metal not drawn] : is its tissue uptake at 1 h no less than 0.7 %ID/g?
Satisfied

Entry O=C(O)CCC[C@H](NC(=O)N[C@@H](CCCCNC(=O)[C@H](Cc1c2ccccc2cc2ccccc12)NC(=O)Cc1cccc(CNC(=O)CN2CCN(CC(=O)O)CCN(CC(=O)O)CCN(CC(=O)O)CC2)c1)C(=O)O)C(=O)O [68Ga-HTK04037, metal not drawn] : is its tissue uptake at 1 h no less than 0.7 %ID/g?
Not satisfied

// data source = patent US11504441B2
